residual activity reference
Biological target: NEK2 (human) (UniProt P51955)
Sequence (P51955 whole entry, looked up): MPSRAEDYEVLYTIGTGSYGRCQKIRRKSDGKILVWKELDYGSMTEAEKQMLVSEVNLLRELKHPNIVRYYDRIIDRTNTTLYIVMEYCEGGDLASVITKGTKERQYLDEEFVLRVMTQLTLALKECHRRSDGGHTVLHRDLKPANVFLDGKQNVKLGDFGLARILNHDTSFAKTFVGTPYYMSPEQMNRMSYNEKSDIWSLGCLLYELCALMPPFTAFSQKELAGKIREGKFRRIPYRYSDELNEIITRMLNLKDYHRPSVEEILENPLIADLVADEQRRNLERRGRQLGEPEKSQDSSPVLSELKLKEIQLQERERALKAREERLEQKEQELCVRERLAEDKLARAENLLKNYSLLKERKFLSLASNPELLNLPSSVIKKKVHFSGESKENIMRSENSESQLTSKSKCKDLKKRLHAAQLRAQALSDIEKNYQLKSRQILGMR
Experiment: radiometric filter-binding kinase assay, Kinase HotSpot
Conditions: compound 0.5 µM; ATP 10 µM
Readout label: residual activity (%)

{"columns": ["Sample smiles", "Numeric value"],
 "data": [
  ["COc1ccc2c(c1)c(C1=C(c3c[nH]c4ccccc34)C(=O)NC1=O)cn2CCCN(C)C", 99.7],
  ["CCCCc1c(-c2ccc(OC)cc2)[nH]c2nccnc12", 115],
  ["CN(C)S(=O)(=O)c1ccc2c(c1)/C(=C/c1cc3c([nH]1)CCCC3)C(=O)N2", 98],
  ["O=C1c2ccccc2-c2nc3nnnn3nc21", 77.7],
  ["CO[C@@H]1[C@H](N(C)C(=O)c2ccccc2)C[C@H]2O[C@]1(C)n1c3ccccc3c3c4c(c5c6ccccc6n2c5c31)C(=O)NC4", 101],
  ["CN(C)c1ccc(/C=C2\\C(=O)Nc3ccccc32)cc1", 98.4]
]}
